# key: entry, value: cytotoxicity at 70.5 h
- Protocol Notes: Human HepG2 cell viability assay in 384 well format
- Assay type: toxicity, cell-based
- Design: dose 125 nL, time 70.5 hour; concentration not given beside the values
- Protocol Conditions: HepG2 cells, read-out: Inhibition
Reply with just the number (in %).

# Compound, Endpoint Value
data = [
    ("CC(C)(C)n1ncc(NCc2ccccc2)c(Cl)c1=O", 22.2),
]

Suppose we examine the compound CN(C(=O)NCc1nccn1Cc1ccccc1)C1CC1 ; what cytotoxicity at 70.5 h value has been reported?
9.16

Suppose we examine the compound Cc1nn(CC(=O)N2CCN(Cc3cccnc3)CC2)c(C)c1Cl ; what cytotoxicity at 70.5 h value has been reported?
-10.2

Suppose we examine the compound O=C1NCC2(CCCN(CCc3ccccc3)C2)Oc2ccccc21 (centres undefined) ; what cytotoxicity at 70.5 h value has been reported?
21.7

Suppose we examine the compound CN(Cc1ccccc1)C(=O)CCS(=O)(=O)c1ccc2c(c1)OCCO2 ; what cytotoxicity at 70.5 h value has been reported?
-62.4

Suppose we examine the compound Cc1nc(CN2C(=O)C[C@H]3[C@H]2CCN3C2CCOC2)cs1 (some centres undefined) ; what cytotoxicity at 70.5 h value has been reported?
28.1

Suppose we examine the compound CN(Cc1cc(F)ccc1C#N)CC(C)(CO)CO ; what cytotoxicity at 70.5 h value has been reported?
-4.66

Suppose we examine the compound c1ccc(CCNc2cccc(C3CCCNC3)n2)cc1 (centres undefined) ; what cytotoxicity at 70.5 h value has been reported?
6.58

Suppose we examine the compound Cc1cc(C2CCCN2Cc2ccn(C)c(=O)c2)no1 (centres undefined) ; what cytotoxicity at 70.5 h value has been reported?
-1.78

Suppose we examine the compound CC(C)CN1CCC(NC(=O)NCCC(=O)NCc2ccccc2)CC1 ; what cytotoxicity at 70.5 h value has been reported?
-2.46

Suppose we examine the compound CCNC(=O)[C@@H]1CCCN1C(=O)c1cccc(CCC(C)(C)O)c1 ; what cytotoxicity at 70.5 h value has been reported?
-7.73

Suppose we examine the compound CCn1cc(CN2CCCN(C(=O)Cc3ccc(C)nc3)CC2)cn1 ; what cytotoxicity at 70.5 h value has been reported?
-9.56

Suppose we examine the compound Cc1nc(CN(C)C2CCN(Cc3nnc(C4CC4)o3)C2)no1 (centres undefined) ; what cytotoxicity at 70.5 h value has been reported?
2.48

Suppose we examine the compound O=S(=O)(NCCn1ccc(-c2ccccn2)n1)C1CCCCC1 ; what cytotoxicity at 70.5 h value has been reported?
23.9

###

# key: entry, value: cytotoxicity at 70.5 h
- Protocol Notes: Human HepG2 cell viability assay in 384 well format
- Type: toxicity, cell-based
- Design: dose 125 nL, time 70.5 hour; concentration not given beside the values
- Protocol Conditions: HepG2 cells, read-out: Inhibition
Reply with just the number (in %).

Consider the following illustrative entries.
# Compound, Endpoint Value
measured = [
    ("Cc1sc(CN)nc1-c1ccc(Cl)cc1", 4.14),
    ("CCOc1cccc(C(=O)N2C[C@H]3CC[C@@H]2CN(C(=O)C2CCC2)C3)c1", 23.1),
    ("CC(C)NC(=O)c1ccc2c(c1)nc1n2CCN(c2ccccc2)C1", -11.7),
]

Suppose we examine the compound CCc1nnc(Nc2cccc(C3CCN(C(=O)CN(C)C)CC3)n2)s1 ; what cytotoxicity at 70.5 h value has been reported?
9.15

###

- Protocol Notes: Human HepG2 cell viability assay in 384 well format
- Format: toxicity, cell-based
- Design: dose 125 nL, time 70.5 hour; concentration not given beside the values
- Protocol Conditions: HepG2 cells, read-out: Inhibition
# key: entry, value: cytotoxicity at 70.5 h
Reply with just the number (in %).

# Molecule, cytotoxicity at 70.5 h [%]
rows = [
    ("Cn1cc(Cl)c(CN2CCn3nc(C(=O)Nc4ccccc4)cc3C2)n1", 32.8),
    ("CC(C)(C)c1ncc(C(=O)NCCNC(=O)c2ccc(O)cc2)s1", -7.09),
    ("Cc1nc(C2CCCN2C(=O)c2ccc(F)cc2)ncc1C(N)=O (stereo not drawn)", -3.31),
    ("Cc1cc(C(=O)N2CCC3(CC2)CC(c2cccnc2)C(=O)N3)no1 (stereo not drawn)", 1.95),
]

Suppose we examine the molecule CC(C)n1ccc2ccc(C(=O)NC3CN4CCC3CC4)cc21 (stereo not drawn) ; what cytotoxicity at 70.5 h value has been reported?
-17.1

Suppose we examine the molecule O=C(NC1CCN(c2cccc(OC(F)(F)F)c2)C1=O)C1CCC1 (stereo not drawn) ; what cytotoxicity at 70.5 h value has been reported?
-2.94

Suppose we examine the molecule Cc1nc2ccnn2c(C)c1CCC(=O)N1CCC(C(N)=O)CC1 ; what cytotoxicity at 70.5 h value has been reported?
2.4

Suppose we examine the molecule COc1cc(CNCC(O)c2ccc(C)cc2)cc2c1OCO2 (stereo not drawn) ; what cytotoxicity at 70.5 h value has been reported?
-2.01

###

- Protocol Notes: Human HepG2 cell viability assay in 384 well format
- Assay type: toxicity, cell-based
- Parameters: dose 125 nL, time 70.5 hour; concentration not given beside the values
- Protocol Conditions: HepG2 cells, read-out: Inhibition
Property Label: cytotoxicity at 70.5 h

# Molecule, cytotoxicity at 70.5 h
rows = [
    ("Cc1ccc(-c2nc(CCNC(=O)C3CC(=O)N(C)C3)cs2)cc1 (stereo not drawn)", "-98.5%"),
    ("O=C(Nc1ccccc1)c1cc2n(n1)CCCN(C(=O)N1CCCC1)C2", "22.6%"),
]

Suppose we examine the molecule CN1CCO[C@@H]2CN(S(=O)(=O)c3ccccc3F)CC[C@@H]2C1 ; what cytotoxicity at 70.5 h value has been reported?
-1.61%

###

# key: entry, value: cytotoxicity at 70.5 h
- Protocol Notes: Human HepG2 cell viability assay in 384 well format
- Assay type: toxicity, cell-based
- Set-up: dose 125 nL, time 70.5 hour; concentration not given beside the values
- Protocol Conditions: HepG2 cells, read-out: Inhibition
Kindly report the value followed by its unit.

# Compound, Endpoint Value
rows = [
    ("CS(=O)(=O)N1CCCC(Cc2ccnc3ccncc23)CC1 (stereo not drawn)", "-0.73%"),
    ("OCC1CCN(c2ccc(NCc3ccsc3)nc2)CC1", "-5.76%"),
]

Proceeding to the next compound to report its cytotoxicity at 70.5 h.
Suppose we examine the compound CCSCc1csc(-c2ccc(S(C)(=O)=O)cc2)n1 ; what cytotoxicity at 70.5 h value has been reported?
-2.67%

###

# key: entry, value: cytotoxicity at 70.5 h
- Protocol Notes: Human HepG2 cell viability assay in 384 well format
- Assay type: toxicity, cell-based
- Design: dose 125 nL, time 70.5 hour; concentration not given beside the values
- Protocol Conditions: HepG2 cells, read-out: Inhibition
Reply with just the number (in %).

# Molecule, Endpoint Value
measured = [
    ("CCOCC1CN(Cc2cc(C)on2)Cc2cn(C)nc21 (stereo not given)", 4.78),
    ("CCOc1ccc(C2SCC(=O)Nc3c2c(=O)[nH]n3C(C)C)cc1 (stereo not given)", -11.8),
    ("CCn1c(SC)nnc1C1CCN(C(=O)N2CCCC2)CC1", -4.95),
    ("Cc1nccn1[C@@H]1CC[C@@H](NC(=O)Cn2c(C)nc3ccccc32)[C@H]1O", 0.7),
    ("Cc1ccnn1CCC(=O)N1CCCC1c1cc2cccnc2[nH]1 (stereo not given)", 1.14),
    ("COc1cc(C(=O)N(C)Cc2nccn2CC(F)(F)F)ccc1C", 15.7),
    ("CN(c1ccc(C(=O)NCCCN2CCCC2)c(Cl)c1)S(C)(=O)=O", 17.4),
    ("CN1C[C@@H](NC(=O)c2cc(F)cc(F)c2)C[C@H]1C(=O)NCc1ncc[nH]1", -16.2),
    ("CCOc1ccc(CN(C)C(=O)c2nc(N3CCCC3)ncc2Cl)cc1", -8.28),
]

Proceeding to the next molecule to report its cytotoxicity at 70.5 h.
Suppose we examine the molecule O=C(Nc1ccccc1)c1n[nH]c(-n2cnnc2)n1 ; what cytotoxicity at 70.5 h value has been reported?
-2.23

###

- Protocol Notes: Human HepG2 cell viability assay in 384 well format
- Type: toxicity, cell-based
- Parameters: dose 125 nL, time 70.5 hour; concentration not given beside the values
- Protocol Conditions: HepG2 cells, read-out: Inhibition
# key: entry, value: cytotoxicity at 70.5 h
Kindly report the value followed by its unit.

Consider the following illustrative entries.
# Compound, cytotoxicity at 70.5 h
measured = [
    ("Cc1ccc(CSc2nc(N)cc(NCC(=O)N3CCNCC3)n2)cc1", "-4.01%"),
    ("COCCN1CC(Nc2nc(C3CCCC3)nc3c2cnn3C)CC1=O (stereo not given)", "18.4%"),
    ("COCc1cc(CN(C)C(=O)c2c[nH]nc2-c2cccc(F)c2)n[nH]1", "19.4%"),
    ("CN(C)S(=O)(=O)N1CC(c2nc(-c3ccsc3)no2)C1", "-6.06%"),
    ("Cc1nc(CN2C(=O)C[C@H]3[C@H]2CCN3CC2CCOC2)cs1 (stereo not given in full)", "2.38%"),
]

Suppose we examine the compound COc1ccc(OC)c(C(O)CN2CCC(N3CCC(C)CC3)CC2)c1 (stereo not given) ; what cytotoxicity at 70.5 h value has been reported?
2.26%

Suppose we examine the compound Cc1cc(C[C@@H]2COC[C@H]2NCc2ccc(C(F)(F)F)cc2)on1 ; what cytotoxicity at 70.5 h value has been reported?
-5.79%

Suppose we examine the compound c1ccc(-c2nc(CNCC3CCCN3c3cccnn3)co2)cc1 (stereo not given) ; what cytotoxicity at 70.5 h value has been reported?
12.4%

Suppose we examine the compound Cc1cnn(C2(C(=O)O)CCN(c3ccnc4cc(Cl)ccc34)CC2)c1 ; what cytotoxicity at 70.5 h value has been reported?
-5.05%

Suppose we examine the compound Cc1ccccc1C1CCN(CCNC(=O)CS(C)(=O)=O)C1 (stereo not given) ; what cytotoxicity at 70.5 h value has been reported?
-4.32%

All figures here come from ChEMBL document CHEMBL3507680.
